The following compounds are shown together with reported IC50 values.
Tested on: Total ATXN3 (tATXN3) protein
Test: Endogenous Total ATXN3 (tATXN3) Protein Assay (MSD immunoassay of cell lysates)
Type: cell-based
Details: average IC50, total ATXN3 protein in cell lysate after 48 h with compound (Table 1)

Compound	IC50
N[C@@H]1COCC[C@H]1c1sc2c(NCc3nccs3)cc(Cl)nc2c1I [Compound 408]	30 to 300 nM
Cc1c([C@H]2CC=CC[C@@H]2N)sc2c(NCc3ccccc3)cc(Cl)nc12 [Compound 258]	30 to 300 nM
N[C@H]1CCCC[C@@H]1c1sc2c(NCc3cccs3)cc(Cl)nc2c1C1CC1 [Compound 130]	30 to 300 nM
N[C@H]1CCCCCC[C@H]1c1sc2c(NCc3cccs3)cc(Cl)nc2c1Br [Compound 102]	> 1000 nM
N[C@H]1CCCC[C@@H]1c1sc2c(NCc3cccs3)cc(Cl)nc2c1I [Compound 57]	≤ 30 nM

Query: Recall the recorded IC50 for Cc1c([C@H]2COCC[C@@H]2N)sc2c(NCc3ccco3)cc(Cl)nc12 [Compound 260] with Total ATXN3 (tATXN3) protein and state it.
Reply: 30 to 300 nM

Query: // query: [2H]C1=C([2H])C([2H])([2H])[C@H](c2sc3c(NCc4cccs4)cc(Cl)nc3c2C)[C@@H](N)C1([2H])[2H] [Compound 205]
Reply: ≤ 30 nM

Query: Also need CN(Cc1ccco1)c1cc(Cl)nc2c(C#CCCCO)c([C@H]3CC=CC[C@@H]3N)sc12 [Compound 336] , thanks.
Reply: 30 to 300 nM

Query: Entry to check: N[C@H]1CCC[C@@H]1c1sc2c(NCc3ccco3)cc(Cl)nc2c1Cl [Compound 117]
Reply: ≤ 30 nM

Query: Can you handle N[C@H]1CCCO[C@@H]1c1sc2c(NCc3cccs3)cc(Cl)nc2c1C#CCO (mixture of isomers) [Compound 252] next?
Reply: 30 to 300 nM

Query: Consider next the compound N[C@@H]1CC=CC[C@H]1c1sc2c(NCc3ccccc3)nc(Cl)nc2c1Br [Compound 434] in the same way.
Reply: 30 to 300 nM

Query: What would you report for N[C@@H]1CCOC[C@H]1c1sc2c(NCc3ccco3)cc(Cl)nc2c1Cl [Compound 389] ?
Reply: 300 to 1000 nM

Query: Now consider N[C@H]1CC=CC[C@@H]1c1sc2c(NCc3cccs3)cc(Cl)nc2c1C#Cc1ccncc1 [Compound 395] .
Reply: 300 to 1000 nM

Query: Same question for N[C@@H]1CCCO[C@H]1c1sc2c(NCc3ccco3)nc(Cl)nc2c1Br (single isomer, unassigned) [Compound 42] please.
Reply: 300 to 1000 nM
